- systemUnderTest: kappa opioid receptor (Homo sapiens)
experimentalEndpoint: pKi
Numbers only, as −log10 of the molar value.

[[record]]
molecule = "C[C@H]1[C@H]2Cc3ccc(O)cc3[C@]1(C)CCN2CC1CC1 [Cyclazocine, cycloproplymethyl-benzomorphan, reference compound]"
experimentalendpoint = "pKi"
numericreadout = 10.00


Let us move to another entry and its pKi.
Ask: What value of measured pKi is listed for CC(C1CC1)N1CCC23CCCCC2C1Cc1ccc(O)cc13 (stereo not drawn) [PPL-103, α-methyl-cyclopropylmethyl-morphinan] ?
Result: 8.61

* * *

- systemUnderTest: delta opioid receptor (Homo sapiens)
- Construct: membranes prepared
- testProtocol: biochemical
- conditionNotes: Receptor binding Ki
For each record, write down the corresponding pKi.
Answers are plain numbers, as −log10 of the molar value.

Report pKi for each item below.
1. C[C@H]1[C@H]2Cc3ccc(O)cc3[C@]1(C)CCN2CC1CC1 [Cyclazocine, cycloproplymethyl-benzomorphan, reference compound]
2. CC(C1CC1)N1CCC23CCCCC2C1Cc1ccc(O)cc13 (centres unmarked)

Result:
9.10
9.54

* * *

- systemUnderTest: kappa opioid receptor (Homo sapiens, UniProt P41145)
- Construct: membranes prepared
- Sequence (P41145 whole entry): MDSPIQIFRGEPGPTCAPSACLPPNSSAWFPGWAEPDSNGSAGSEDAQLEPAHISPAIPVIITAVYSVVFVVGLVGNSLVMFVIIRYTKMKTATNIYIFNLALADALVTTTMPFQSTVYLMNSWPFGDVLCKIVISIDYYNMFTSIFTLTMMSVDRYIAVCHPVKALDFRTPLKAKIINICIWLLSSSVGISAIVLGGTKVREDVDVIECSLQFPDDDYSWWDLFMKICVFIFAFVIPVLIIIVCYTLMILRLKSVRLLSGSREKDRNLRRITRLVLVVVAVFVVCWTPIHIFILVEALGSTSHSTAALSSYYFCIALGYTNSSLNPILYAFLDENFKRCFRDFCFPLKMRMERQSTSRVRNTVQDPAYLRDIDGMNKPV
- testProtocol: biochemical
experimentalEndpoint: EC50 (nM)
Give bare numbers, in nM.

Ask: What value of measured EC50 is listed for CC(C1CC1)N1CCC23CCCCC2C1Cc1ccc(O)cc13 (stereo not drawn) [PPL-103, α-methyl-cyclopropylmethyl-morphinan] ?
Result: 9.01

* * *

- systemUnderTest: delta opioid receptor (Homo sapiens, UniProt P41143)
- Construct: membranes prepared
- Sequence (P41143 whole entry): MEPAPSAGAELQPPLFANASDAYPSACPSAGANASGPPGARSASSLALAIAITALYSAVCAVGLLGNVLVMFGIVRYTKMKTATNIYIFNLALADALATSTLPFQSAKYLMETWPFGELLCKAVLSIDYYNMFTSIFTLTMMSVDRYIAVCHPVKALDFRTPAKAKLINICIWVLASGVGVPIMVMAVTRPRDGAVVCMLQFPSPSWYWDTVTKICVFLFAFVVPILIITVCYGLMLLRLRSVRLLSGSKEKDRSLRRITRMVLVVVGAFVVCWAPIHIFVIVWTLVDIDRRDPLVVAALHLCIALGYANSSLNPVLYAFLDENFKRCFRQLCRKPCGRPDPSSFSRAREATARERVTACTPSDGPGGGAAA
- testProtocol: [35S]GTPγS binding, CHO cell membranes
experimentalEndpoint: pEC50
Answers are plain numbers, as −log10 of the molar value.

Ask: What value of measured pEC50 is listed for CC(C1CC1)N1CCC23CCCCC2C1Cc1ccc(O)cc13 (stereo not drawn) [PPL-103, α-methyl-cyclopropylmethyl-morphinan] ?
Result: 8.52
